test: In vitro dissolution simulation experiment, phosphate buffer pH 7.4; type: physicochemical; conditions: pH 7.4 phosphate buffer, 37° C., 3.5 (h)
Listed here: items and their measured Concentration.
Record the value in µg/mL, omitting the unit from your answer.

Examples with answers:
>  <compound>
CN(C)C(=O)NC1CCC(CCN2CCN(c3cccc(Cl)c3Cl)CC2)CC1 (stereo not shown) [Crystalline form B of cariprazine embonate]

>  <test.result>
4.0

$$$$
>  <compound>
CN(C)C(=O)NC1CCC(CCN2CCN(c3cccc(Cl)c3Cl)CC2)CC1 (stereo not shown) [Crystalline form A of cariprazine embonate]

>  <test.result>
3.4

$$$$
>  <compound>
CN(C)C(=O)NC1CCC(CCN2CCN(c3cccc(Cl)c3Cl)CC2)CC1 (stereo not shown) [Amorphous cariprazine embonate, cariprazine embonate]

>  <test.result>
10.3

$$$$

### Prompt Look up Concentration of CN(C)C(=O)NC1CCC(CCN2CCN(c3cccc(Cl)c3Cl)CC2)CC1 (stereo not shown) [Crystalline form G of cariprazine embonate] and report it.
### Response 4.51

* * *

Listed here: items and their measured Concentration.
assay: In vitro dissolution simulation experiment, phosphate buffer pH 7.4; assay type: physicochemical; settings: pH 7.4 phosphate buffer, 37° C., 24 (h)
Record the value in ng/mL, omitting the unit from your answer.

### Prompt Look up Concentration of CN(C)C(=O)NC1CCC(CCN2CCN(c3cccc(Cl)c3Cl)CC2)CC1 (stereo not shown) [Amorphous cariprazine embonate, cariprazine embonate] and report it.
### Response 9900

### Prompt Look up Concentration of CN(C)C(=O)NC1CCC(CCN2CCN(c3cccc(Cl)c3Cl)CC2)CC1 (stereo not shown) [Crystalline form B of cariprazine embonate] and report it.
### Response 1700

### Prompt Look up Concentration of CN(C)C(=O)NC1CCC(CCN2CCN(c3cccc(Cl)c3Cl)CC2)CC1 (stereo not shown) [Crystalline form A of cariprazine embonate] and report it.
### Response 2500

### Prompt Look up Concentration of CN(C)C(=O)NC1CCC(CCN2CCN(c3cccc(Cl)c3Cl)CC2)CC1 (stereo not shown) [Crystalline form G of cariprazine embonate] and report it.
### Response 8050

* * *

assay: physchem; conditions: 37 °C, pH 3, aqueous buffer, thermodynamic from solid, Solubility
Where a name gives a salt, the structure may show the parent alone.
reported.property: solubility at 24 h (mg/mL)
Record the value in mg/mL, omitting the unit from your answer.

### Prompt Look up solubility at 24 h of CN(C)C(=O)N[C@H]1CC[C@H](CCN2CCN(c3cccc(Cl)c3Cl)CC2)CC1 [cariprazine hydrochloride] and report it.
### Response 12.3

* * *

assay: In vitro dissolution simulation experiment, phosphate buffer pH 7.4; format: physicochemical; settings: pH 7.4 phosphate buffer, 37° C., 5 (h)
reported.property: Concentration (ng/mL)
Record the value in ng/mL, omitting the unit from your answer.

>  <molecule>
CN(C)C(=O)NC1CCC(CCN2CCN(c3cccc(Cl)c3Cl)CC2)CC1 (stereo not shown) [Crystalline form B of cariprazine embonate]

>  <test.result>
5200

$$$$

### Prompt Look up Concentration of CN(C)C(=O)NC1CCC(CCN2CCN(c3cccc(Cl)c3Cl)CC2)CC1 (stereo not shown) [Crystalline form G of cariprazine embonate] and report it.
### Response 2280

### Prompt Look up Concentration of CN(C)C(=O)NC1CCC(CCN2CCN(c3cccc(Cl)c3Cl)CC2)CC1 (stereo not shown) [Amorphous cariprazine embonate, cariprazine embonate] and report it.
### Response 9580

### Prompt Look up Concentration of CN(C)C(=O)NC1CCC(CCN2CCN(c3cccc(Cl)c3Cl)CC2)CC1 (stereo not shown) [Crystalline form A of cariprazine embonate] and report it.
### Response 4100

* * *

experiment: physchem; conditions: 37 °C, pH 4, aqueous buffer, thermodynamic from solid, Solubility
Counter-ions that a name gives are not always drawn.
reported.property: solubility at 24 h (µg/mL)
Record the value in µg/mL, omitting the unit from your answer.

### Prompt Look up solubility at 24 h of CN(C)C(=O)N[C@H]1CC[C@H](CCN2CCN(c3cccc(Cl)c3Cl)CC2)CC1 [cariprazine hydrochloride] and report it.
### Response 9770

* * *

Listed here: items and their measured Concentration.
experiment: In vitro dissolution simulation experiment, phosphate buffer pH 7.4; type: physicochemical; details: pH 7.4 phosphate buffer, 37° C., 1 (h)
Record the value in ng/mL, omitting the unit from your answer.

Examples with answers:
>  <molecule>
CN(C)C(=O)NC1CCC(CCN2CCN(c3cccc(Cl)c3Cl)CC2)CC1 (stereo not shown) [Crystalline form B of cariprazine embonate]

>  <test.result>
5300

$$$$
>  <molecule>
CN(C)C(=O)NC1CCC(CCN2CCN(c3cccc(Cl)c3Cl)CC2)CC1 (stereo not shown) [Crystalline form G of cariprazine embonate]

>  <test.result>
1300

$$$$
>  <molecule>
CN(C)C(=O)NC1CCC(CCN2CCN(c3cccc(Cl)c3Cl)CC2)CC1 (stereo not shown) [Crystalline form A of cariprazine embonate]

>  <test.result>
1000

$$$$

### Prompt Look up Concentration of CN(C)C(=O)NC1CCC(CCN2CCN(c3cccc(Cl)c3Cl)CC2)CC1 (stereo not shown) [Amorphous cariprazine embonate, cariprazine embonate] and report it.
### Response 11940

* * *

assay: physchem; details: 37 °C, pH 8, aqueous buffer, thermodynamic from solid, Solubility
reported.property: solubility at 24 h (µg/mL)
Record the value in µg/mL, omitting the unit from your answer.

### Prompt Look up solubility at 24 h of CN(C)C(=O)N[C@H]1CC[C@H](CCN2CCN(c3cccc(Cl)c3Cl)CC2)CC1 and report it.
### Response 1

* * *

assay: In vitro dissolution simulation experiment, phosphate buffer pH 7.4; assay type: physicochemical; details: pH 7.4 phosphate buffer, 37° C., 7 (h)
Listed here: items and their measured Concentration.
Record the value in ng/mL, omitting the unit from your answer.

>  <compound>
CN(C)C(=O)NC1CCC(CCN2CCN(c3cccc(Cl)c3Cl)CC2)CC1 (stereo not shown) [Crystalline form G of cariprazine embonate]

>  <unit.string>
ng/mL

>  <Concentration>
1840

$$$$

### Prompt Look up Concentration of CN(C)C(=O)NC1CCC(CCN2CCN(c3cccc(Cl)c3Cl)CC2)CC1 (stereo not shown) [Amorphous cariprazine embonate, cariprazine embonate] and report it.
### Response 7080

### Prompt Look up Concentration of CN(C)C(=O)NC1CCC(CCN2CCN(c3cccc(Cl)c3Cl)CC2)CC1 (stereo not shown) [Crystalline form A of cariprazine embonate] and report it.
### Response 3900

### Prompt Look up Concentration of CN(C)C(=O)NC1CCC(CCN2CCN(c3cccc(Cl)c3Cl)CC2)CC1 (stereo not shown) [Crystalline form B of cariprazine embonate] and report it.
### Response 2200

* * *

test: physchem; conditions: 37 °C, pH 5, aqueous buffer, thermodynamic from solid, Solubility
Counter-ions that a name gives are not always drawn.
reported.property: solubility at 24 h (µg/mL)
Record the value in µg/mL, omitting the unit from your answer.

### Prompt Look up solubility at 24 h of CN(C)C(=O)N[C@H]1CC[C@H](CCN2CCN(c3cccc(Cl)c3Cl)CC2)CC1 [cariprazine hydrochloride] and report it.
### Response 1080
